Origin of values: patent US11149037B2

biological target: FAAH (Homo sapiens (Human), UniProt O00519); assay: In vitro competitive activity-based protein profiling, human proteomes (prefrontal cortex or PC3 cell membrane fractions); format: biochemical; conditions: 1 μM, human proteome; read-out: FAAH % inh. 1 μM (human)
Sequence (O00519 whole entry): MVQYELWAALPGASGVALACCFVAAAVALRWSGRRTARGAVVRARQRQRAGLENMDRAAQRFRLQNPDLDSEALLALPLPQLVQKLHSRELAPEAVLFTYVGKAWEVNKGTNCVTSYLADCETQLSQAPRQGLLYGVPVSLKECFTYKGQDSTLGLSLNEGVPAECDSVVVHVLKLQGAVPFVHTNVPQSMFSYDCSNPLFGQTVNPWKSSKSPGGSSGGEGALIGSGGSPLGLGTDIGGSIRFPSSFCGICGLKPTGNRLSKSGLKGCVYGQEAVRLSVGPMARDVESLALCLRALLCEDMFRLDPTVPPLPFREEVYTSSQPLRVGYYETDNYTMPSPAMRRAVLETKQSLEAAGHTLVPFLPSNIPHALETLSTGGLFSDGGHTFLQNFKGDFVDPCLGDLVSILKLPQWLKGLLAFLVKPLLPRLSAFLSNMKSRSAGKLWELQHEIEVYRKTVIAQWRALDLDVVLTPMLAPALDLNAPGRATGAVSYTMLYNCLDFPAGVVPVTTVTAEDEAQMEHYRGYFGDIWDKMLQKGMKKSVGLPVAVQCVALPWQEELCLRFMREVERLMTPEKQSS
measurement_type: inhibition at 1 µM

| compound | target_system | result |
| --- | --- | --- |
| CC1(N(CC(=O)O)Cc2ccc(C(F)(F)F)cc2N2CCCC2)CCN(C(=O)n2ccc(NS(C)(=O)=O)n2)CC1 | FAAH (Homo sapiens (Human), UniProt O00519) | 0 to 25% |
| CC(=O)Nc1ccn(C(=O)N2CC3CN(Cc4cc(F)cc(Cl)c4)CC3C2)n1 (stereo not drawn) | FAAH (Homo sapiens (Human), UniProt O00519) | > 75% |
| CC(=O)Nc1ccn(C(=O)N2CCC3(CCN(C(=O)c4cc5ccc(C(F)(F)F)cc5s4)C3)CC2)n1 | FAAH (Homo sapiens (Human), UniProt O00519) | 25 to 50% |
| CS(=O)(=O)Nc1ccn(C(=O)N2CCC3(CCN(Cc4cc(N5CCCC5)cc(C(F)(F)F)c4)C3)CC2)n1 | FAAH (Homo sapiens (Human), UniProt O00519) | 0 to 25% |
| CS(=O)(=O)Nc1ccn(C(=O)N2CCC3(CCN(Cc4cc(N5CCOCC5)cc(C(F)(F)F)c4)C3)CC2)n1 | FAAH (Homo sapiens (Human), UniProt O00519) | 0 to 25% |
| CC(=O)Nc1ccn(C(=O)N2CC3CN(Cc4cccc(C(F)(F)F)c4)CC3C2)n1 (stereo not drawn) | FAAH (Homo sapiens (Human), UniProt O00519) | 25 to 50% |
| CN(c1ccc(C(F)(F)F)cc1N1CCCC1)C1CCN(C(=O)n2ccc(NS(C)(=O)=O)n2)CC1 | FAAH (Homo sapiens (Human), UniProt O00519) | 0 to 25% |
| CC(=O)Nc1ccn(C(=O)N2CCN(Cc3ccc(N4CC5COCC5C4)cc3C(F)(F)F)CC2)n1 (stereo not drawn) | FAAH (Homo sapiens (Human), UniProt O00519) | 50 to 75% |
| CC(=O)Nc1ccn(C(=O)N2CCC3(CCCN3Cc3cc4cc(C(=O)O)ccc4[nH]3)CC2)n1 | FAAH (Homo sapiens (Human), UniProt O00519) | 0 to 25% |
| CS(=O)(=O)Nc1ccn(C(=O)N2CCC(N(Cc3ccc(C(F)(F)F)cc3N3CCCC3)C3CC3)CC2)n1 | FAAH (Homo sapiens (Human), UniProt O00519) | 0 to 25% |

# batch size: 5; output inhibition at 1 µM per entry
1. CN(Cc1ccc(C(F)(F)F)cc1NCC(=O)O)C1(C)CCN(C(=O)n2ccc(NS(C)(=O)=O)n2)CC1
2. C[C@H](c1ccc(Cl)c(N2CCC(F)CC2)c1)N1CCN(C(=O)n2ccc(NS(C)(=O)=O)n2)CC1
3. CS(=O)(=O)Nc1ccn(C(=O)N2CCC(Oc3ccc(C(F)(F)F)cc3C(=O)N3CCCC3)CC2)n1
4. CC(=O)Nc1ccn(C(=O)N2CCN(Cc3ccc(Cl)cc3OCC(=O)O)CC2)n1
5. Cc1c(CN2CCN(C(=O)n3ccc(NS(C)(=O)=O)n3)CC2)sc2ccccc12

["0 to 25%", "0 to 25%", "0 to 25%", "0 to 25%", "0 to 25%"]
